# System tested: KRAS G12C (Homo sapiens (Human), UniProt P01116+P62937, G12C)
# Sequence (P01116-2 other isoform, or with tags, fused parts or gaps G12C): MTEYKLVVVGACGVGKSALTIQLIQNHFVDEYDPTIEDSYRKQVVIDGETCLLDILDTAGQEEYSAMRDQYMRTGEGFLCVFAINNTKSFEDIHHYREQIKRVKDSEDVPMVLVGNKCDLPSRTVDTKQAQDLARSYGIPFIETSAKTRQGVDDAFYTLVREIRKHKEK
# Sequence (P62937 whole entry): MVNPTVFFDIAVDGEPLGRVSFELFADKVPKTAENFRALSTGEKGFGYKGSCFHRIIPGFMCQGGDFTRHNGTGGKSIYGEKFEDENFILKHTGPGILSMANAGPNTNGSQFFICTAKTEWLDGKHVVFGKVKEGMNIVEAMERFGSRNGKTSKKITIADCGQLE
# Assay summary: Ras-Raf disruption/FRET/MOA assay (BRAF RBD, Cyclophilin A)
# Format: biochemical
# Conditions used: read-out: KRAS G12C FRET IC50
# Description: Compound is present in plate wells as a 10-point 3-fold dilution series starting at a final concentration of 30 μM. After incubation at 25° C. for 3 hours, a mixture of Anti-His Eu—W1024 and anti-GST allophycocyanin is then added to assay sample wells at final concentrations of 10 nM and 50 nM, respectively, and the reaction incubated for an additional 1.5 hours. […]
Measured parameter: IC50

Here are 2 molecules together with their reported answers.
| Molecule | IC50 |
| --- | --- |
| CCn1c(-c2cccnc2[C@H](C)OC)c2c3cc(ccc31)-c1cc(O)cc(c1)C[C@H](NC(=O)[C@H](C(C)C)N(C)C(=O)C1CC(C)C1)C(=O)N1CCC[C@H](N1)C(=O)OCC(C)(C)C2 (some centres unmarked) [Compound A384] | 10 to 100 nM |
| CCn1c(-c2cnccc2COC)c2c3cc(ccc31)-c1cc(O)cc(c1)C[C@H](NC(=O)[C@H](C(C)C)N(C)c1nccs1)C(=O)N1CCC[C@H](N1)C(=O)OCC(C)(C)C2 [Compound A86] | 100 to 1000 nM |

Given CCn1c(-c2cccnc2[C@H](C)OC)c2c3cc(ccc31)-c1csc(n1)C[C@H](NC(=O)[C@H](C(C)C)N(C)C(=O)N1CCC[C@H]1c1ccccc1)C(=O)N1CCC[C@H](N1)C(=O)OCC(C)(C)C2 [Compound A599] , respond with its IC50.
1000 to 10000 nM

Note down IC50 recorded for CCn1c(-c2cnccc2COC)c2c3cc(ccc31)-c1cc(O)cc(c1)C[C@H](NC(=O)[C@H](C(C)C)N(C)C(=O)[C@@H]1CNC[C@@H]1C(F)(F)F)C(=O)N1CCC[C@H](N1)C(=O)OCC(C)(C)C2 [Compound A79]
100 to 1000 nM

Report IC50, nothing else, for this molecule: CCn1c(-c2cccnc2[C@H](C)OC)c2c3cc(ccc31)-c1csc(n1)C[C@H](NC(=O)[C@H](C(C)C)N1CCC3(CCN(S(C)(=O)=O)C3)C1=O)C(=O)N1CCC[C@H](N1)C(=O)OCC(C)(C)C2 (some centres unmarked) [Compound A220]
1000 to 10000 nM

---

# System tested: KRAS G12C (Homo sapiens (Human), UniProt P01116+P62937, G12C)
# Assay summary: Ras-Raf disruption/FRET/MOA assay, KRAS G12C
# Type: biochemical
# From the text: Disruption of B-Raf Ras-Binding Domain (BRAF^RBD) Interaction with K-Ras by Compounds of the Invention (Also Called a FRET Assay or an MOA Assay) Note—The following protocol describes a procedure for monitoring disruption of K-Ras G12C (GMP-PNP) binding to BRAF^RBD by a compound of the invention. This protocol may also be executed substituting other Ras proteins or nucleotides, such as K-Ras G12D and K-Ras G13D. […]
Measured parameter: IC50

| Compound | System tested | IC50 |
| --- | --- | --- |
| CCn1c(-c2cnccc2COC)c2c3cc(ccc31)-c1cc(O)cc(c1)C[C@H](NC(=O)[C@H](C(C)C)N(C)C(=O)CN(C)C(=O)[C@H]1N[C@@H]1c1ccc(OC)cc1)C(=O)N1CCC[C@H](N1)C(=O)OCC(C)(C)C2 [Example 97] | KRAS G12C (Homo sapiens (Human), UniProt P01116+P62937, G12C) | 10 to 100 nM |
| CCn1c(-c2cccnc2[C@H](C)OC)c2c3cc(ccc31)-c1cc(O)cc(c1)C[C@H](NC(=O)[C@@H](C(C)C)N(C)C(=O)[C@@]1(C)CCCN1C(=O)[C@H]1CN1)C(=O)N1CCC[C@H](N1)C(=O)OCC(C)(C)C2 [Example 240] | KRAS G12C (Homo sapiens (Human), UniProt P01116+P62937, G12C) | 100 to 1000 nM |
| CCn1c(-c2cccnc2[C@H](C)OC)c2c3cc(ccc31)-c1cc(O)cc(c1)C[C@H](NC(=O)[C@H](C(C)C)N(C)C(=O)[C@@H]1CO[C@H](C)CN1C(=O)[C@H]1CN1)C(=O)N1CCC[C@H](N1)C(=O)OCC(C)(C)C2 [Example 248] | KRAS G12C (Homo sapiens (Human), UniProt P01116+P62937, G12C) | 10 to 100 nM |

Next, consider the following compound.
Give reported IC50 value for CCn1c(-c2cnccc2COC)c2c3cc(ccc31)-c1cc(O)cc(c1)C[C@H](NC(=O)[C@H](C(C)C)N(C)C(=O)CN(C)C(=O)[C@H]1N[C@@H]1c1ccccc1)C(=O)N1CCC[C@H](N1)C(=O)OCC(C)(C)C2 [Example 12]
10 to 100 nM
